Test system: SEM cells
Assay: cell viability relative to DMSO control; higher = less cytotoxic
Conditions: RPMI 5 mM glucose + 10% FBS; 48 h; 0.00234 µM
I'd appreciate it if you could supply cell viability values for the items below.
# do not omit the unit; it follows the number

Would you mind listing cell viability for each of the following compounds?
1. N=C1N[C@H]2[C@H](CS[C@H]2CCCCC(=O)O)N1
2. CC(=O)[C@]1(O)Cc2c(O)c3c(c(O)c2[C@@H](O[C@H]2C[C@H](N)[C@H](O)[C@H](C)O2)C1)C(=O)c1ccccc1C3=O
3. NC(=O)Nc1cc(-c2cccc(F)c2)sc1C(=O)N[C@H]1CCCNC1

Response line:
115%
117%
84.4%

====

System: NOMO1
Experiment: cell viability relative to DMSO control; higher = less cytotoxic
Details: RPMI 5 mM glucose + 10% dialyzed FBS; 48 h; 15.4 µM
Threshold 80%. cell viability below it: Condition met. cell viability at it or above: Condition not met.

INSERT INTO measurements (compound, category_label) VALUES
  ('CC(O)C1C2C(C)\C(=C(/N2C1=O)C(O)=O)SC3CNC(C3)C(=O)N(C)C (stereo unspecified)', 'Condition not met'),
  ('Nc1nc(Cl)nc2c1ncn2[C@@H]1O[C@H](CO)[C@@H](O)[C@@H]1F', 'Condition met'),
  ('COc1cc(CNC(=O)CCCC/C=C/C(C)C)ccc1O', 'Condition met'),
  ('C=CCc1ccc(O)c(-c2ccc(O)c(CC=C)c2)c1', 'Condition met'),
  ('O=C(/C=C/c1ccc(O)cc1)c1ccc(O)cc1O', 'Condition not met');

Prompt line: cell viability under 80%? Item: CC(C)(O)c1cc2nc(-c3cnc(N)nc3)nc(N3CCOCC3)c2s1
Response line: Condition met

Prompt line: cell viability under 80%? Item: CN1CCN(CCCN2c3ccccc3Sc3ccc(C(F)(F)F)cc32)CC1
Response line: Condition met

Prompt line: cell viability under 80%? Item: CN(C)CCN1C(=O)c2cccc3cc(N)cc(c23)C1=O
Response line: Condition met

====

System: SEM cells
Experiment: cell viability relative to DMSO control; higher = less cytotoxic
Settings: HPLM + 10% dialyzed FBS; 48 h; 15.4 µM
Measurement type: cell viability (%)
Answers are plain numbers, in %.

INSERT INTO measurements (sample_smiles, target_desc, result_units, numeric_value) VALUES
  ('OC1=CC2=C(C(=C1)O)C(=O)\C(=C(/O2)C3=CC(=C(O)C=C3)O)O', 'SEM cells', '%', 94.8),
  ('CN(Cc1cc(Br)cc(Br)c1N)C1CCCCC1', 'SEM cells', '%', 130),
  ('CO/N=C(/C(=O)N[C@@H]1C(=O)N2C(C(=O)O)=C(CSC(=O)c3ccco3)CS[C@H]12)c1csc(N)n1', 'SEM cells', '%', 88.4);

Would you mind listing cell viability for each of the following compounds?
1. C1CCN2C[C@H]3C[C@H](\C=C/4CCCN[C@@H]34)[C@H]2C1
2. CCOC(=O)/C=C/[C@H](C[C@@H]1CCNC1=O)NC(=O)[C@@H](CC(=O)[C@@H](NC(=O)c1cc(C)on1)C(C)C)Cc1ccc(F)cc1
3. OCCn1cc(-c2cnc3nnn(Cc4ccc5ncccc5c4)c3n2)cn1
4. CC[C@]1(O)C[C@@H]2CN(CCc3c([nH]c4ccccc34)[C@@](C(=O)OC)(c3cc4c(cc3OC)N(C)[C@H]3[C@@](O)(C(N)=O)[C@H](O)[C@]5(CC)C=CCN6CC[C@]43[C@@H]65)C2)C1

Response line:
[123, 113, 72.1, 15.7]

compound OC[C@H]1O[C@@H](Oc2cc(O)cc(/C=C/c3ccc(O)cc3)c2)[C@H](O)[C@@H](O)[C@@H]1O , cell viability observed: 116

====

Tested on: SEM cells
Assay: cell viability relative to DMSO control; higher = less cytotoxic
Conditions: HPLM + 10% dialyzed FBS; 48 h; 0.00702 µM
Measurement type: cell viability

These solved cases illustrate the format of a correct answer.
INSERT INTO measurements (compound, target_desc, result) VALUES
  ('CN(C)CCN1C(=O)c2cccc3cc(N)cc(c23)C1=O', 'SEM cells', '110%'),
  ('Cc1ccc2c(c1)c1c(n2CCc2ccc(C)nc2)CCN(C)C1', 'SEM cells', '120%'),
  ('Cc1ncc([N+](=O)[O-])n1CC(C)O (stereo unspecified)', 'SEM cells', '69.3%'),
  ('CC(=O)[C@]1(O)Cc2c(O)c3c(c(O)c2[C@@H](O[C@H]2C[C@H](N)[C@H](O)[C@H](C)O2)C1)C(=O)c1ccccc1C3=O', 'SEM cells', '123%'),
  ('CN(C)/N=N/c1nc[nH]c1C(N)=O', 'SEM cells', '117%');

compound OC(CN1CCN(c2cccc(Cl)c2)CC1)C(c1ccccc1)c1ccccc1 (stereo unspecified) , cell viability observed: 102%

====

I'd appreciate it if you could supply cell viability values for the items below.
System: NOMO1
Assay: cell viability relative to DMSO control; higher = less cytotoxic
Conditions: RPMI 5 mM glucose + 10% dialyzed FBS; 48 h; 0.0632 µM
One number for each entry, in %.

These solved cases illustrate the format of a correct answer.
INSERT INTO measurements (compound, result_units, numeric_value) VALUES
  ('CC(O)C1C2C(C)\C(=C(/N2C1=O)C(O)=O)SC3CNC(C3)C(=O)N(C)C (configuration not stated)', '%', 84.2),
  ('N#C/N=C(\NCCCCCCOc1ccc(Cl)cc1)Nc1ccncc1', '%', 12.5),
  ('CNC(=O)CN1CCC(Oc2cc3c(Nc4cccc(Cl)c4F)ncnc3cc2OC)CC1', '%', 141);

Would you mind listing cell viability for each of the following compounds?
1. COc1ncc(-c2ccc3c(Nc4cc(Oc5cc(F)cc(F)c5)cc(C(=O)O)c4)c([S+](=O)([O-])NC4CC4)cnc3c2)c(OC)n1
2. CC(NCCc1ccc(O)cc1)C(O)c1ccc(O)cc1 (configuration not stated)

Response line:
92
110

====

I'd appreciate it if you could supply cell viability values for the items below.
Test system: SEM cells
Assay: cell viability relative to DMSO control; higher = less cytotoxic
Settings: HPLM + 10% dialyzed FBS; 48 h; 0.0632 µM
Numbers only, in %.

Would you mind listing cell viability for each of the following compounds?
1. CCOc1cc(CC(=O)N[C@@H](CC(C)C)c2ccccc2N2CCCCC2)ccc1C(=O)O
2. Nc1nc(Cl)nc2c1ncn2[C@@H]1O[C@H](CO)[C@@H](O)[C@@H]1F

Response line:
1. 116
2. 18

compound CCN1CCN(C(=O)Cc2ccc(Nc3ncc(F)c(Nc4ccc(C(=O)Nc5ccccc5Cl)cc4)n3)cc2)CC1 , cell viability observed: 109

====

System: NOMO1
Test: cell viability relative to DMSO control; higher = less cytotoxic
Conditions: HPLM + 10% dialyzed FBS; 48 h; 15.4 µM
I'd appreciate it if you could supply cell viability values for the items below.
Numbers only, in %.

These solved cases illustrate the format of a correct answer.
INSERT INTO results (compound, target_desc, result_units, numeric_value) VALUES
  ('NC(=O)Nc1cc(-c2cccc(F)c2)sc1C(=O)N[C@H]1CCCNC1', 'NOMO1', '%', 26.9),
  ('COc1cccc2c1[C@]13CCN(CC4CC4)[C@H](C2)[C@]1(OC)CCC(=O)C3', 'NOMO1', '%', 82.2),
  ('CCN1CCN(C(=O)Cc2ccc(Nc3ncc(F)c(Nc4ccc(C(=O)Nc5ccccc5Cl)cc4)n3)cc2)CC1', 'NOMO1', '%', 62.4),
  ('CC(C)Cc1ccc(C(C)C(=O)O)cc1 (stereo unspecified)', 'NOMO1', '%', 91.4),
  ('O.O.CCN1CCN(C(=O)N[C@H](C(=O)N[C@H]2[C@@H]3SC\C(=C(/N3C2=O)C(O)=O)CSC4=NN=N[N]4C)C5=CC=C(O)C=C5)C(=O)C1=O', 'NOMO1', '%', 89.8);

compound CC/1=C(/N2[C@H](SC1)[C@H](NC(=O)C(N)C3=CC=CC=C3)C2=O)C(O)=O (stereo partly specified) , cell viability observed: 106

====

I'd appreciate it if you could supply cell viability values for the items below.
System: NOMO1
Assay: cell viability relative to DMSO control; higher = less cytotoxic
Details: HPLM + 10% dialyzed FBS; 48 h; 15.4 µM
# do not omit the unit; it follows the number

These solved cases illustrate the format of a correct answer.
INSERT INTO assay_data (compound, result) VALUES
  ('COc1ncc(-c2ccc3c(Nc4cc(Oc5cc(F)cc(F)c5)cc(C(=O)O)c4)c([S+](=O)([O-])NC4CC4)cnc3c2)c(OC)n1', '77.7%'),
  ('Nc1ncnc2c1c(-c1cccc(OCc3ccccc3)c1)cn2C1CC(CN2CCCC2)C1 (centres undefined)', '78.1%'),
  ('CO/N=C(\C(=O)N[C@@H]1C(=O)N2C(C(=O)OCOC(=O)C(C)(C)C)=C(/C=C\c3scnc3C)CS[C@H]12)c1csc(N)n1', '81.7%');

We next turn to a different compound, shown below.
Observed cell viability, NOMO1, C[C@@H](O)[C@@H]1NC(=O)[C@H](CCCCN)NC(=O)[C@@H](Cc2c[nH]c3ccccc23)NC(=O)[C@H](Cc2ccccc2)NC(=O)[C@@H](NC(=O)[C@H](N)Cc2ccccc2)CSSC[C@@H](C(=O)N[C@H](CO)[C@@H](C)O)NC1=O : 81.8%
